target: hGIPR (Homo sapiens); experiment: Functional cAMP activity in the presence of 1% HSA; assay type: cell-based; conditions: read-out: cAMP Rel EC50, hGIPR
Sequence (P48546 22-466): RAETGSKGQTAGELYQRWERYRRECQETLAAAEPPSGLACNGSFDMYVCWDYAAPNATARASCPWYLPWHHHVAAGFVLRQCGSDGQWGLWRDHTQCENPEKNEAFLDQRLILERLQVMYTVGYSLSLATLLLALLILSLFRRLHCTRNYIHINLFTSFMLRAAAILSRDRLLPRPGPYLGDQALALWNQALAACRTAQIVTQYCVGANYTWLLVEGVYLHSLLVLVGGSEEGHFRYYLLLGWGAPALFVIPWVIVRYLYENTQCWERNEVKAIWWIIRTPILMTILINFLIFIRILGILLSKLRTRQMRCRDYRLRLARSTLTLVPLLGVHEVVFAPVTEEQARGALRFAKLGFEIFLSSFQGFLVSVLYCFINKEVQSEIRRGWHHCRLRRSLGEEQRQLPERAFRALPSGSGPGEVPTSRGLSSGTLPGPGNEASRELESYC
Starred links: 1 amine or outer side, 2 acyl side, 3 side chain; linkers in the order of their positions; H or OH if unused. Non-standard residues stand in square brackets, D forms with d. Groups on a side chain read outwards from the residue. No end group written: not given here. *: point of attachment. C20 diacid = O=C(O)CCCCCCCCCCCCCCCCCCC(=O)*; C18 diacid = O=C(O)CCCCCCCCCCCCCCCCC(=O)*; Phe(4-CN) = N#Cc1ccc(C[C@H](N)C(=O)O)cc1; αMePhe(2-F) = C[C@](N)(Cc1ccccc1F)C(=O)O; γGlu = O=C(O)[C@H](CCC(=O)[*:2])N[*:1]; αMe4Pal = C[C@](N)(Cc1ccncc1)C(=O)O; αMeY = C[C@](N)(Cc1ccc(O)cc1)C(=O)O; Hyp = O=C(O)[C@@H]1C[C@@H](O)CN1; 4Pal = N[C@@H](Cc1ccncc1)C(=O)O; αMeL = CC(C)C[C@](C)(N)C(=O)O; αMeS = C[C@](N)(CO)C(=O)O; Orn = NCCC[C@H](N)C(=O)O; AEEA = NCCOCCOCC(=O)O; Aib = CC(C)(N)C(=O)O
Reported EC50 is given for each of the following substances.

| substance | EC50 / nM |
| --- | --- |
| H-Y[Aib]QGTFTSD[4Pal]SK[αMeL]LDKK([γGlu-γGlu-C18 diacid])AQ[Aib]AFIEYLIE[Aib]GPSSGAPPPSGS-NH2 [Example 907] | 8.86 |
| H-Y[Aib]QGTFTSD[4Pal]S[Orn][αMeL]LDKK([γGlu-γGlu-C18 diacid])AQ[αMe4Pal]AFIEYLIE[Aib]GPSSGAPPPSGS-NH2 [Example 865] | 10.8 |
| H-Y[Aib]QGT[αMePhe(2-F)]TSD[4Pal][αMeS]I[αMeL]LD[Orn]K([γGlu-γGlu-C18 diacid])AQ[Aib][Orn]FI[dE][αMeY]LSEGGPSSGEPPPSGGE-NH2 [Example 559] | 9.15 |
| H-Y[Aib]QGT[αMePhe(2-F)]TSD[4Pal][αMeS]I[αMeL]LD[Orn]K([γGlu-γGlu-C18 diacid])AQ[Aib][Orn]FI[dE][αMeY]LTEGGPSSGEPPPEGTEEE-NH2 [Example 598] | 3.49 |
| H-Y[Aib]QGTFTSDFS[Orn][αMeL]LDKK([AEEA-γGlu-C18 diacid])AQ[Aib]AFIEYLLEGG[Hyp]SSGAPPPGGS-NH2 [Example 234] | 31.1 |
| H-Y[Aib]QGTFTSDFSK[αMeL]LDKK([γGlu-γGlu-C18 diacid])AQ[Aib]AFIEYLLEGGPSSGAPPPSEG-NH2 [Example 58] | 3.75 |
| H-Y[Aib]QGTFTSDFSK[αMeL]LDKK([AEEA-γGlu-C18 diacid])AQ[Aib]AFIEYLLEGGPSSGAPPPSGS-NH2 [Example 141] | 62.1 |
| Y[Aib]QGTFTSDFSK[αMeL]LDKK([AEEA-γGlu-C20 diacid])AQ[Aib]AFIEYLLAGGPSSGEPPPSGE-NH2 [Example 2] | 75.5 |
| H-Y[Aib]QGT[αMePhe(2-F)]TSD[Phe(4-CN)]SILLDKQAQK([AEEA-AEEA-γGlu-C20 diacid])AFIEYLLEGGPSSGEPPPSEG-NH2 [Example 321] | 13 |
| Y[Aib]QGTFTSD[4Pal]SQ[αMeL]LD[Orn]K([dE-γGlu-C18 diacid])AQ[αMe4Pal]AFIQ[αMeY]LLEGGPSSGAPPPSGSEEE-NH2 [Example 1083] | 20.5 |
| H-Y[Aib]QGTFTSD[4Pal]S[Orn][αMeL]LDKK([γGlu-γGlu-C18 diacid])AQ[αMe4Pal]AFIE[αMe4Pal]LIEGGPSSGAPPPSGS-NH2 [Example 952] | 16.6 |
| H-Y[Aib]QGT[αMePhe(2-F)]TSD[4Pal][αMeS]I[αMeL]LD[Orn]K([AEEA-γGlu-C18 diacid])AQ[αMe4Pal]EFI[dE][αMeY]LVEGGPSSGEPPPSGSEE-NH2 [Example 736] | 1.23 |
| H-Y[Aib]QGT[αMePhe(2-F)]TSD[4Pal][αMeS]ILLD[Orn]K([γGlu-γGlu-C18 diacid])AQ[Aib][Orn]FI[dE]YLIEGGPSSGEPPPEGTEEE-NH2 [Example 577] | 10 |
| H-Y[Aib]QGTFTSD[4Pal]SQ[αMeL]LDKK([Glu-Glu-γGlu-C18 diacid])AQ[αMe4Pal]AFIEYLIAGGPSSGAPPPSGEEE-NH2 [Example 1090] | 27.3 |
